Biological target: human/rat alpha1B adrenergic receptor
Experiment: Selective binding assay, competition with [125I]-HEAT on COS-7 membranes, α1B
Design: species or system human/rat hybrid
Conditions: Table I; 100 pM [125I]-HEAT, COS-7 membranes
pIC50: −log10 of the molar value.
PROPERTY NAME: pIC50

Study these solved cases before continuing.
COMPOUND: COc1cccc(OC)c1OCCNCC1COc2ccccc2O1 (stereo not shown) [WB4101]
EXPERIMENTAL SYSTEM: human/rat alpha1B adrenergic receptor
pIC50: 7.80
//
COMPOUND: COc1cc2nc(N3CCN(C(=O)C4CCCO4)CC3)nc(N)c2cc1OC (stereo not shown) [terazosin]
EXPERIMENTAL SYSTEM: human/rat alpha1B adrenergic receptor
pIC50: 8.30
//
COMPOUND: Cc1ccc(N(CC2=NCCN2)c2cccc(O)c2)cc1 [phentolamine]
EXPERIMENTAL SYSTEM: human/rat alpha1B adrenergic receptor
pIC50: 6.19
//
COMPOUND: CC(COc1ccccc1)N(CCCl)Cc1ccccc1 (stereo not shown) [phenoxybenzamine]
EXPERIMENTAL SYSTEM: human/rat alpha1B adrenergic receptor
pIC50: 8.37

a. COc1cccc(OC)c1OCCNCC1CSc2ccccc2O1 (stereo not shown) [benoxathian]
b. COc1cc2nc(N3CCN(C(=O)C4COc5ccccc5O4)CC3)nc(N)c2cc1OC (stereo not shown) [doxazosin]
c. COc1ccccc1N1CCN(CCCNc2c(C)c(=O)n(C)c(=O)n2C)CC1 [5-methyl urapidil]
Ask | Sort these compounds on pIC50 so the largest reading comes first. Your task in answering is to list the labels in the requested order.
Reply | b, a, c
(b: 8.70, a: 7.17, c: 6.57)

---

Target: human/rat alpha1B adrenergic receptor
Test: Selective binding assay, competition with [125I]-HEAT on COS-7 membranes, α1B
Parameters: species or system human/rat hybrid
PROPERTY NAME: IC50 (nM)

A. COc1cc2nc(N3CCN(C(=O)c4ccco4)CC3)nc(N)c2cc1OC
B. COC(=O)C1=C(C)NC(C)=C(C(=O)OCCCN2CCC(c3ccccc3)(c3ccccc3)CC2)[C@H]1c1cccc([N+](=O)[O-])c1 [S(+) niguldipine]
Ask | Which one would you say has the larger IC50 value: A , or B ? # answer = label of selected item
Reply | B

---

Molecular target: human alpha1C adrenergic receptor (Homo sapiens, UniProt P35348, C347R)
Sequence (P35348 1-466 C347R): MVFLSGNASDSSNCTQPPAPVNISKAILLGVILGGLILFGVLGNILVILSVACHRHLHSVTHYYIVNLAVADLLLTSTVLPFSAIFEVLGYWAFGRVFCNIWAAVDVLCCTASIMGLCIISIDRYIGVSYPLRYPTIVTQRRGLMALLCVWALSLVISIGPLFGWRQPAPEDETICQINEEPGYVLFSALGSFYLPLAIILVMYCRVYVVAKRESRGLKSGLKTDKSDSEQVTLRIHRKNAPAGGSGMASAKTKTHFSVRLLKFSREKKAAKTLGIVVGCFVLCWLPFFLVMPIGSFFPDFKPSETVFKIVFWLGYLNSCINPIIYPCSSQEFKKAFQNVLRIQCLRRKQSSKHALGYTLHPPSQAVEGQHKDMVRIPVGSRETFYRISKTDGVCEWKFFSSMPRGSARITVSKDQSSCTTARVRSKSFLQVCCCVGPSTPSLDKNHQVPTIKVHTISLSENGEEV
Assay: Selective binding assay, competition with [125I]-HEAT on COS-7 membranes, α1C
Settings: Table I, 100 pM [125I]-HEAT
PROPERTY NAME: IC50 (nM)

MOLECULE: COc1cccc(OC)c1OCCNCC1COc2ccccc2O1 (stereo not drawn)
IC50 [nM]: 1

I. COc1ccccc1N1CCN(CCCNc2c(C)c(=O)n(C)c(=O)n2C)CC1
II. COc1cccc(OC)c1OCCNCC1CSc2ccccc2O1 (stereo not drawn)
Ask | Which of the two items, I and II , has the greater recorded IC50? Return value: the label identifying the chosen record.
Reply | I
